# Assay System: SALL4 (Homo sapiens, UniProt Q96SW2+Q9UJQ4)
# Construct: endogenous in cells
# Sequence (Q9UJQ4 whole entry): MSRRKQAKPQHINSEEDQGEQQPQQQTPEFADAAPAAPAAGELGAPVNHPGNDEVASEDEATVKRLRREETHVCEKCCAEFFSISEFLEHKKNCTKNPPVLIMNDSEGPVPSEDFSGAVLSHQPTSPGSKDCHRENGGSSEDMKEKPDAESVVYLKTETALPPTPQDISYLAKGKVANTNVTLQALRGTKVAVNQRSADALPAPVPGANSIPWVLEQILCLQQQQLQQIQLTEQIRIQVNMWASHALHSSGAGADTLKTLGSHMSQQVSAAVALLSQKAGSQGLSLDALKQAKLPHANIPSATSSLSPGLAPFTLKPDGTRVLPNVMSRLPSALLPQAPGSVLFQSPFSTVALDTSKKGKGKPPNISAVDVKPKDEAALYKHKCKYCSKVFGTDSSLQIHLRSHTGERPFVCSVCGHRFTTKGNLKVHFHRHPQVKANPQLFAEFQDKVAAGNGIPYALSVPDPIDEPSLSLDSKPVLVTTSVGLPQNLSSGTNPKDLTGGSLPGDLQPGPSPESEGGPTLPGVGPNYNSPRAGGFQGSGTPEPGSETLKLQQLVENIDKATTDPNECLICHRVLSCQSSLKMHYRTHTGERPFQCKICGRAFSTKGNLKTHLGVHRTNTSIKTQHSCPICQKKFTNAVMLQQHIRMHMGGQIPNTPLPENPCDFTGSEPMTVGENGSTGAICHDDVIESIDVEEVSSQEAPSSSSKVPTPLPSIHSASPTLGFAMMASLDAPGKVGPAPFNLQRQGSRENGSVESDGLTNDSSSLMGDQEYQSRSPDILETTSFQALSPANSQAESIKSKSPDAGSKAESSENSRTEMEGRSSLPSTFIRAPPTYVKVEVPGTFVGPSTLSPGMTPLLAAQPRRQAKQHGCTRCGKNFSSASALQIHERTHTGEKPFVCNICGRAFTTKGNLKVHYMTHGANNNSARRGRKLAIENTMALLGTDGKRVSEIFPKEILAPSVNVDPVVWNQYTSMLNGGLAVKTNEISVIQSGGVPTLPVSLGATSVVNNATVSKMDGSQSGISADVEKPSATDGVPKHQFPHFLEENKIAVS
# Sequence (Q96SW2 whole entry): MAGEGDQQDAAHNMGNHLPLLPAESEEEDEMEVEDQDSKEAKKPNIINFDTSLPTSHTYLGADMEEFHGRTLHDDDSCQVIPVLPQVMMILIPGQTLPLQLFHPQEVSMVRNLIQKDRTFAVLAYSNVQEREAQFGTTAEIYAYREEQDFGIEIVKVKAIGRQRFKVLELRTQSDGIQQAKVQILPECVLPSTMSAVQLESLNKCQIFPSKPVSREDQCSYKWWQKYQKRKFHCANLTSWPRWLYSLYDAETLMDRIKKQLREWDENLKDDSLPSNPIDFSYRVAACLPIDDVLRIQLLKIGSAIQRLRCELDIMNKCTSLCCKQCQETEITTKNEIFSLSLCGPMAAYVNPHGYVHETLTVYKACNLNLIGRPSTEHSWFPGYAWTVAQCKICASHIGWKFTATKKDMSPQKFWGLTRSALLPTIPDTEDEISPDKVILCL
# Sequence (Q16531 whole entry partner): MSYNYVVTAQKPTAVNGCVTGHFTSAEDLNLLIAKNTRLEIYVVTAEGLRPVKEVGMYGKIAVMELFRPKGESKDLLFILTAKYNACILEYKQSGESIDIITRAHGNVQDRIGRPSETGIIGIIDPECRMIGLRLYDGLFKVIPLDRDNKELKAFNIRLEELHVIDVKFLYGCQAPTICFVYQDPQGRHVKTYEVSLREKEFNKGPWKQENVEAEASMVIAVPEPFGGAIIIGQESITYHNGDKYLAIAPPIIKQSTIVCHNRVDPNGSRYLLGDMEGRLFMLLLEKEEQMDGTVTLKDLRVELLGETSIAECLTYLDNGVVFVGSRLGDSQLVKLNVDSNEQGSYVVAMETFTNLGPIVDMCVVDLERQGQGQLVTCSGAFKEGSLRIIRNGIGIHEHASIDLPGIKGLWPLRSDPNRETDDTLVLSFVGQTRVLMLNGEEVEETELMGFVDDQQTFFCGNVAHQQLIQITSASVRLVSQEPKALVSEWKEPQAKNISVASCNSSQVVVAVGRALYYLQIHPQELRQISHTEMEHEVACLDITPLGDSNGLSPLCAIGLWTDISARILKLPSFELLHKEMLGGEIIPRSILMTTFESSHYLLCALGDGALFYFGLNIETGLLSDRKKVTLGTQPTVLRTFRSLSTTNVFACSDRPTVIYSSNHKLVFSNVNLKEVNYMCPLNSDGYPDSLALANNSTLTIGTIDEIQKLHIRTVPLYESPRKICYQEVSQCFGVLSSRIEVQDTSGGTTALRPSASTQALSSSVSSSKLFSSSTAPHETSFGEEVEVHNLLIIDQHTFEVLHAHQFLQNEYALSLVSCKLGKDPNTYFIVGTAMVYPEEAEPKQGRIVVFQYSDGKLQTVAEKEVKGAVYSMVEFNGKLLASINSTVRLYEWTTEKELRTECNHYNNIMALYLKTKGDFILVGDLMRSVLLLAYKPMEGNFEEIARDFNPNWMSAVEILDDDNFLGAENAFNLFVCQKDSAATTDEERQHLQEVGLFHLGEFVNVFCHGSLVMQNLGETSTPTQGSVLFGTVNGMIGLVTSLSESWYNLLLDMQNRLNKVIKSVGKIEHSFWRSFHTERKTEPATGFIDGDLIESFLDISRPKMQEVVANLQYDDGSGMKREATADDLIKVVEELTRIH
# Method Description: HiBiT degradation assay, NCCIT/SALL4-HiBiT KI cells
# Condition Description: degradation, 2 hr incubation, top conc 10 uM, N ≥ 3
pEC50: −log10 of the molar value.
Reported Endpoint: pEC50

# Molecule, Reported Endpoint, Reading
rows = [
    ("O=C1CCC(N2Cc3ccc(C4=C[C@]4(C(=O)OCC(Cl)(Cl)Cl)c4ccc(Br)cc4)cc3C2=O)C(=O)N1 (stereo partly drawn) [Compound 23a]", "pEC50", "< 5.00"),
    ("O=C1CCC(N2Cc3cccc([C@@H]4C[C@]4(C(=O)OCC(Cl)(Cl)Cl)c4ccc(Br)cc4)c3C2=O)C(=O)N1 (stereo partly drawn) [Compound 18a]", "pEC50", "< 5.00"),
    ("O=C1CCC(N2Cc3cccc(C4=C[C@]4(C(=O)OCC(Cl)(Cl)Cl)c4ccc(Br)cc4)c3C2=O)C(=O)N1 (stereo partly drawn) [Compound 24a]", "pEC50", "< 5.00"),
]

###

// pIC50 collected for CRBN (Homo sapiens, UniProt Q96SW2)
pIC50: −log10 of the molar value.

# Molecule, Comparative Sign, pIC50
measured = [
    ("O=C1CCC(N2C(=O)c3ccc([C@H]4C[C@@]4(C(=O)OCC(Cl)(Cl)Cl)c4ccc(Br)cc4)cc3C2=O)C(=O)N1 (some centres unmarked) [Compound 16b]", "<", 5.00),
    ("O=C1CCC(N2Cc3cccc([C@H]4C[C@@]4(C(=O)OCC(Cl)(Cl)Cl)c4ccc(Br)cc4)c3C2=O)C(=O)N1 (some centres unmarked) [Compound 18b]", "<", 5.00),
    ("O=C1CCC(N2Cc3cccc([C@@H]4C[C@]4(C(=O)OCC(Cl)(Cl)Cl)c4ccc(Br)cc4)c3C2=O)C(=O)N1 (some centres unmarked) [Compound 18a]", "<", 5.00),
    ("O=C1CCC(N2Cc3ccc(C4=C[C@]4(C(=O)OCC(Cl)(Cl)Cl)c4ccc(Br)cc4)cc3C2=O)C(=O)N1 (some centres unmarked) [Compound 23a]", "=", 6.01),
    ("O=C1CCC(N2C(=O)c3cccc([C@@H]4C[C@]4(C(=O)OCC(Cl)(Cl)Cl)c4ccc(Br)cc4)c3C2=O)C(=O)N1 (some centres unmarked) [Compound 14a]", "<", 5.00),
    ("O=C1CCC(N2Cc3c(cccc3C3=C[C@]3(C(=O)OCC(Cl)(Cl)Cl)c3ccc(Br)cc3)C2=O)C(=O)N1 (some centres unmarked) [Compound 19a]", "=", 6.80),
    ("O=C1CCC(N2Cc3cccc(C4=C[C@]4(C(=O)OCC(Cl)(Cl)Cl)c4ccc(Br)cc4)c3C2=O)C(=O)N1 (some centres unmarked) [Compound 24a]", "=", 5.62),
    ("O=C1CCC(N2Cc3c(cccc3[C@H]3C[C@@]3(C(=O)OCC(Cl)(Cl)Cl)c3ccc(Br)cc3)C2=O)C(=O)N1 (some centres unmarked) [Compound 13b]", "=", 5.62),
    ("O=C1CCC(N2Cc3ccc([C@H]4C[C@@]4(C(=O)OCC(Cl)(Cl)Cl)c4ccc(Br)cc4)cc3C2=O)C(=O)N1 (some centres unmarked) [Compound 17b]", "=", 5.60),
    ("O=C1CCC(N2C(=O)c3cccc(C4=C[C@]4(C(=O)OCC(Cl)(Cl)Cl)c4ccc(Br)cc4)c3C2=O)C(=O)N1 (some centres unmarked) [Compound 20a]", "=", 5.34),
    ("O=C1CCC(N2Cc3ccc([C@@H]4C[C@]4(C(=O)OCC(Cl)(Cl)Cl)c4ccc(Br)cc4)cc3C2=O)C(=O)N1 (some centres unmarked) [Compound 17a]", "=", 5.68),
    ("O=C1CCC(N2Cc3cccc(C4=C[C@@]4(C(=O)OCC(Cl)(Cl)Cl)c4ccc(Br)cc4)c3C2=O)C(=O)N1 (some centres unmarked) [Compound 24b]", "=", 5.54),
    ("O=C1CCC(N2Cc3c(cccc3[C@@H]3C[C@]3(C(=O)OCC(Cl)(Cl)Cl)c3ccc(Br)cc3)C2=O)C(=O)N1 (some centres unmarked) [Compound 13a]", "=", 6.18),
    ("O=C1CCC(N2Cc3ccc(C4=C[C@@]4(C(=O)OCC(Cl)(Cl)Cl)c4ccc(Br)cc4)cc3C2=O)C(=O)N1 (some centres unmarked) [Compound 23b]", "=", 5.77),
]
